Each recorded value in this set is attributed to patent US11739074B2.

Measured target: KRAS G13D (Homo sapiens, UniProt P01116+P62937, G13D)
Sequence (P01116 1-169 isoform P01116-2 G13D limits assumed): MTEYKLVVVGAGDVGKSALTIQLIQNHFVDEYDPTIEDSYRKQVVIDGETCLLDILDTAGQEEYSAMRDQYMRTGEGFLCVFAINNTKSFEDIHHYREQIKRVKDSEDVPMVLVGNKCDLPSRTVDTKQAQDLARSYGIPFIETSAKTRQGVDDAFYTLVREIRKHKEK
Sequence (P62937 whole entry): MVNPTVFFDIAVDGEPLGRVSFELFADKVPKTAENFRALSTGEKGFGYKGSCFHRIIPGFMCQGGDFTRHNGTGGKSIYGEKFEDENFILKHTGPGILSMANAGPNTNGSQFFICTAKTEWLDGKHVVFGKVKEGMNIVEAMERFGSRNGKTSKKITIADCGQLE
Test protocol: Ras-Raf disruption/FRET/MOA assay, KRAS G13D
Assay type: biochemical
Measurement parameters: disruption of BRAF RBD binding, with Cyclophilin A; read-out: KRAS G13D FRET IC50
We begin with a simple list: items and their reported IC50.

Molecule smiles	IC50
CCn1c(-c2cccnc2[C@H](C)OC)c2c3cc(ccc31)-c1cc(O)cc(c1)C[C@H](NC(=O)[C@H](C(C)C)N1CC[C@@]3(CCCN(C(=O)[C@@H]4CN4)C3)C1=O)C(=O)N1CCC[C@H](N1)C(=O)OCC(C)(C)C2	0.1 to 1 µM
CCn1c(-c2cnccc2COC)c2c3cc(ccc31)-c1cc(O)cc(c1)C[C@H](NC(=O)[C@H](C(C)C)N(C)C(=O)[C@H]1CCN(C(=O)N3C[C@@H]3C(=O)OC)C1)C(=O)N1CCC[C@H](N1)C(=O)OCC(C)(C)C2	0.1 to 1 µM

###

Listed compounds paired with reported IC50
Measured target: KRAS G12D (Homo sapiens, UniProt P01116+P62937, G12D)
Sequence (P01116 1-169 isoform P01116-2 G12D limits assumed, one chain of several): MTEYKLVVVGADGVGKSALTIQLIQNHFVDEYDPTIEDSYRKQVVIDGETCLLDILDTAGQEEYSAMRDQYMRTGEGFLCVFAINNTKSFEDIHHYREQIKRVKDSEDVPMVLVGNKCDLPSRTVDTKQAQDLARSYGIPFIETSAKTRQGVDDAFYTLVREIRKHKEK
Test protocol: Ras-Raf disruption/FRET/MOA assay, KRAS G12D
Format: biochemical
Measurement parameters: disruption of BRAF RBD binding, with Cyclophilin A; read-out: KRAS G12D FRET IC50
Attribute measured: IC50

Compound	Attribute measured	Assay value
CCn1c(-c2cccnc2[C@H](C)OC)c2c3cc(ccc31)-c1cc(O)cc(c1)C[C@H](NC(=O)[C@H](C(C)C)N1CC[C@@]3(CCN(C[C@H]4CN4)C3)C1=O)C(=O)N1CCC[C@H](N1)C(=O)OCC(C)(C)C2 [Compound 193]	IC50	100 to 1000 nM
CCn1c(-c2cccnc2[C@H](C)OC)c2c3cc(ccc31)-c1cc(O)cc(c1)C[C@H](NC(=O)[C@H](C(C)C)N1CCC3(CCN(C(=O)[C@H]4CN4)CC3)C1=O)C(=O)N1CCC[C@H](N1)C(=O)OCC(C)(C)C2	IC50	100 to 1000 nM
CCn1c(-c2cccnc2[C@H](C)OC)c2c3cc(ccc31)-c1cc(O)cc(c1)C[C@H](NC(=O)[C@H](C(C)C)N(C)C(=O)[C@@H]1CN(C(=O)[C@H]3CN3)C[C@@H]1C)C(=O)N1CCC[C@H](N1)C(=O)OCC(C)(C)C2	IC50	10 to 100 nM
CCn1c(-c2cccnc2[C@H](C)OC)c2c3cc(ccc31)-c1cc(O)cc(c1)C[C@H](NC(=O)[C@H](C(C)C)N1CO[C@]3(CCN(C(=O)[C@H]4CN4)C3)C1=O)C(=O)N1CCC[C@H](N1)C(=O)OCC(C)(C)C2	IC50	10 to 100 nM

###

# key: entry, value: pIC50
Measured target: KRAS WT (Homo sapiens, UniProt P01116+P62937)
Sequence (P01116 1-169 isoform P01116-2 limits assumed, one chain of several): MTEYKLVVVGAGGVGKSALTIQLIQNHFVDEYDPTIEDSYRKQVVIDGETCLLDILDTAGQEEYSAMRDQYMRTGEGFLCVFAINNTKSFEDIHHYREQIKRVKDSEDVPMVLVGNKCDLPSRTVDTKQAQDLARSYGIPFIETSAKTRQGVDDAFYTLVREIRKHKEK
Test protocol: Ras-Raf disruption/FRET/MOA assay, KRAS WT
Assay type: biochemical
Measurement parameters: disruption of BRAF RBD binding, with Cyclophilin A; read-out: KRAS WT FRET IC50
pIC50: −log10 of the molar value.

Compound	pIC50
CCn1c(-c2cccnc2[C@H](C)OC)c2c3cc(ccc31)-c1cc(O)cc(c1)C[C@H](NC(=O)[C@H](C1CCCC1)N(C)C(=O)[C@H]1CCN(C(=O)[C@H]3CN3)C1)C(=O)N1CCC[C@H](N1)C(=O)OCC(C)(C)C2	7.00 to 8.00
CCn1c(-c2cccnc2[C@H](C)OC)c2c3cc(ccc31)-c1csc(n1)C[C@H](NC(=O)[C@H](C(C)C)N(C)C(=O)N1CCC[C@H](N(C)C(=O)[C@H]3CN3)C1)C(=O)N1CCC[C@H](N1)C(=O)OCC(C)(C)C2 (atropisomer, axis not shown)	6.00 to 7.00

###

Measured target: NRAS Q61K (Homo sapiens, UniProt P01111+P62937, Q61K)
Construct: His6
Sequence (P01111 whole entry Q61K, one chain of several): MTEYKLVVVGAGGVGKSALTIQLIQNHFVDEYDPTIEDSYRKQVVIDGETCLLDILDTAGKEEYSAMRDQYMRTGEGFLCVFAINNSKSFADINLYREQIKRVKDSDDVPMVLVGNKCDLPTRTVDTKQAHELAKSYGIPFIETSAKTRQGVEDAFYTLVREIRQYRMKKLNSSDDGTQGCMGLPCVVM
Test protocol: Ras-Raf disruption/FRET/MOA assay, NRAS Q61K
Format: biochemical
Measurement parameters: NRAS Q61K; read-out: NRAS Q61K FRET data IC50
The following molecules are listed with their measured IC50 values.

Molecule	Measured target	IC50
CCn1c(-c2cccnc2[C@H](C)OC)c2c3cc(ccc31)-c1csc(n1)C[C@H](NC(=O)[C@H](C1CCCC1)N1CC[C@]3(CCN(C(=O)[C@H]4CN4)C3)C1=O)C(=O)N1CCC[C@H](N1)C(=O)OCC(C)(C)C2	NRAS Q61K (Homo sapiens, UniProt P01111+P62937, Q61K)	100 to 1000 nM
CCn1c(-c2cccnc2[C@H](C)OC)c2c3cc(ccc31)-c1csc(n1)C[C@H](NC(=O)[C@H](C(C)C)N(C)C(=O)N1CCC[C@@H](N(C)C(=O)[C@H]3CN3)C1)C(=O)N1CCC[C@H](N1)C(=O)OCC(C)(C)C2 (atropisomer, axis not shown)	NRAS Q61K (Homo sapiens, UniProt P01111+P62937, Q61K)	10 to 100 nM
CCn1c(-c2cccnc2[C@H](C)OC)c2c3cc(ccc31)-c1cc(O)cc(c1)C[C@H](NC(=O)[C@H](C(C)C)N1CCCC3(CN(C(=O)[C@H]4CN4)C3)C1=O)C(=O)N1CCC[C@H](N1)C(=O)OCC(C)(C)C2	NRAS Q61K (Homo sapiens, UniProt P01111+P62937, Q61K)	100 to 1000 nM
CCn1c(-c2cnccc2COC)c2c3cc(ccc31)-c1cc(O)cc(c1)C[C@H](NC(=O)[C@H](C(C)C)N(C)C(=O)CN(C)C(=O)[C@H]1CN1S(C)(=O)=O)C(=O)N1CCC[C@H](N1)C(=O)OCC(C)(C)C2 (some centres unmarked)	NRAS Q61K (Homo sapiens, UniProt P01111+P62937, Q61K)	100 to 1000 nM
CCn1c(-c2cnccc2COC)c2c3cc(ccc31)-c1cc(O)cc(c1)C[C@H](NC(=O)[C@H](C(C)C)N(C)C(=O)CN(C)C(=O)[C@@H]1CN1S(C)(=O)=O)C(=O)N1CCC[C@H](N1)C(=O)OCC(C)(C)C2 (some centres unmarked)	NRAS Q61K (Homo sapiens, UniProt P01111+P62937, Q61K)	100 to 1000 nM
CCn1c(-c2cccnc2[C@H](C)OC)c2c3cc(ccc31)-c1cc(O)cc(c1)C[C@H](NC(=O)[C@H](C(C)C)N1CO[C@]3(CCN(C(=O)[C@H]4CN4)C3)C1=O)C(=O)N1CCC[C@H](N1)C(=O)OCC(C)(C)C2	NRAS Q61K (Homo sapiens, UniProt P01111+P62937, Q61K)	10 to 100 nM
CCn1c(-c2cccnc2[C@H](C)OC)c2c3cc(ccc31)-c1cc(O)cc(c1)C[C@H](NC(=O)[C@H](C(C)C)N1CO[C@@]3(CCN(C(=O)[C@H]4CN4)C3)C1=O)C(=O)N1CCC[C@H](N1)C(=O)OCC(C)(C)C2	NRAS Q61K (Homo sapiens, UniProt P01111+P62937, Q61K)	100 to 1000 nM
CCn1c(-c2cccnc2[C@H](C)OC)c2c3cc(ccc31)-c1csc(n1)C[C@H](NC(=O)[C@H](C(C)C)N(C)C(=O)N1C3CCC1CN(C(=O)[C@H]1CN1)C3)C(=O)N1CCC[C@H](N1)C(=O)OCC(C)(C)C2	NRAS Q61K (Homo sapiens, UniProt P01111+P62937, Q61K)	100 to 1000 nM

###

Measured target: NRAS G12C (Homo sapiens, UniProt P01111+P62937, G12C)
Construct: His6
Sequence (P01111 whole entry G12C, one chain of several): as the sequence (P01111 whole entry Q61K, one chain of several) above, with G12C, K61Q counted along it
Test protocol: Ras-Raf disruption/FRET/MOA assay, NRAS G12C
Type: biochemical
Measurement parameters: NRAS G12C; read-out: NRAS G12C FRET data IC50
pIC50: −log10 of the molar value.

Molecule	pIC50
CCn1c(-c2cnccc2COC)c2c3cc(ccc31)-c1cc(O)cc(c1)C[C@H](NC(=O)[C@H](C(C)C)N(C)C(=O)CN(C)C(=O)[C@H]1[C@@H](C)N1[S@+]([O-])C(C)(C)C)C(=O)N1CCC[C@H](N1)C(=O)OCC(C)(C)C2 (some centres unmarked)	7.00 to 8.00
CCn1c(-c2cnccc2COC)c2c3cc(ccc31)-c1cc(O)cc(c1)C[C@H](NC(=O)[C@H](C(C)C)N(C)C(=O)CN(C)C(=O)[C@@H]1[C@H](C(=O)OC)N1[S@@+]([O-])C(C)(C)C)C(=O)N1CCC[C@H](N1)C(=O)OCC(C)(C)C2 (some centres unmarked)	7.00 to 8.00

###

Measured target: KRAS G12V (Homo sapiens, UniProt P01116+P62937, G12V)
Sequence (P01116 1-169 isoform P01116-2 G12V limits assumed, one chain of several): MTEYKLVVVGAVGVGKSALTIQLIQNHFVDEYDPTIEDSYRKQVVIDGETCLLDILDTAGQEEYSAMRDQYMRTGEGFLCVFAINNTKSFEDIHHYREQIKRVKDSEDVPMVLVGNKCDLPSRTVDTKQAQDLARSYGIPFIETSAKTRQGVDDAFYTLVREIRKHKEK
Test protocol: Ras-Raf disruption/FRET/MOA assay, KRAS G12V
Type: biochemical

Compound	IC50
CCn1c(-c2cnccc2COC)c2c3cc(ccc31)-c1cc(O)cc(c1)C[C@H](NC(=O)[C@H](C(C)C)N(C)C(=O)CN(C)C(=O)[C@@H]1CN1)C(=O)N1CCC[C@H](N1)C(=O)OCC(C)(C)C2	100 to 1000 nM
CCn1c(-c2cnccc2COC)c2c3cc(ccc31)-c1cc(O)cc(c1)C[C@H](NC(=O)[C@H](C(C)C)N(C)C(=O)CN(C)C(=O)[C@@H]1CN1Cc1ccccc1)C(=O)N1CCC[C@H](N1)C(=O)OCC(C)(C)C2 (some centres unmarked)	100 to 1000 nM
CCn1c(-c2cccnc2COC)c2c3cc(ccc31)-c1cc(O)cc(c1)C[C@H](NC(=O)[C@H](C(C)C)N(C)C(=O)CCNC(=O)NCCCl)C(=O)N1CCC[C@H](N1)C(=O)OCC(C)(C)C2	> 10000 nM
CCn1c(-c2cnccc2COC)c2c3cc(ccc31)-c1cc(O)cc(c1)C[C@H](NC(=O)[C@H](C(C)C)N(C)C(=O)CN(C)C(=O)[C@H]1N[C@H]1c1ccccc1)C(=O)N1CCC[C@H](N1)C(=O)OCC(C)(C)C2	100 to 1000 nM
CCC(C)N(C)C(=O)c1cncc(-c2c3c4cc(ccc4n2CC)-c2cc(O)cc(c2)C[C@H](NC(=O)[C@H](C(C)C)N(C)C(=O)CN(C)C(=O)[C@H]2CN2)C(=O)N2CCC[C@H](N2)C(=O)OCC(C)(C)C3)c1 (some centres unmarked)	100 to 1000 nM
CCn1c(-c2cnccc2COC)c2c3cc(ccc31)-c1cc(O)cc(c1)C[C@H](NC(=O)[C@H](C(C)C)N(C)C(=O)CN(C)C(=O)[C@@H]1N[C@@H]1c1ccccc1)C(=O)N1CCC[C@H](N1)C(=O)OCC(C)(C)C2	100 to 1000 nM
CCn1c(-c2cnccc2COC)c2c3cc(ccc31)-c1cc(O)cc(c1)C[C@H](NC(=O)[C@H](C(C)C)N(C)C(=O)CN(C)C(=O)[C@H]1CN1)C(=O)N1CCC[C@H](N1)C(=O)OCC(C)(C)C2	100 to 1000 nM
CCn1c(-c2cccnc2[C@H](C)OC)c2c3cc(ccc31)-c1cc(O)cc(c1)C[C@H](NC(=O)[C@H](C(C)C)N(C)C(=O)CN(C)C(=O)[C@@H]1CN1)C(=O)N1CCC[C@H](N1)C(=O)OCC(C)(C)C2	10 to 100 nM
CCn1c(-c2cccnc2[C@H](C)OC)c2c3cc(ccc31)-c1cc(O)cc(c1)C[C@H](NC(=O)[C@H](C(C)C)N(C)C(=O)CN(C)C(=O)[C@H]1N[C@H]1C1CC1)C(=O)N1CCC[C@H](N1)C(=O)OCC(C)(C)C2	100 to 1000 nM
CCn1c(-c2cnccc2COC)c2c3cc(ccc31)-c1cc(O)cc(c1)C[C@H](NC(=O)[C@H](C(C)C)N(C)C(=O)CN(C)C(=O)[C@H]1CN1Cc1ccccc1)C(=O)N1CCC[C@H](N1)C(=O)OCC(C)(C)C2 (some centres unmarked)	100 to 1000 nM
CCn1c(-c2cnccc2COC)c2c3cc(ccc31)-c1cc(O)cc(c1)C[C@H](NC(=O)[C@H](C(C)C)N(C)C(=O)CN(C)C(=O)C1CN1)C(=O)N1CCC[C@H](N1)C(=O)OCC(C)(C)C2 (some centres unmarked)	100 to 1000 nM
